Origin of measurements: ChEMBL document CHEMBL3988442

Overview of reported Percent Effect across a group of molecules:
Test system: Wolbachia pipientis
RUN DESCRIPTION: Anti-Wolbachia Cell-Based Screen
Format: functional
Parameters: scale not given: in the data most compounds retested in dose-response had high values
MEASUREMENT SETUP: 5 µM
Hit rate of the full screen: of about 48,000 compounds, about 13,000 (27%) showed an effect of 50% or more. This is one part of the list.
ASSAY METRIC: Percent Effect (%)

| MOLECULE | READOUT VALUE |
| --- | --- |
| O=C(NC1CC1)[C@H]1CC[C@@H]2[C@@H](CCN2CCOCc2ccccc2)O1.O=C(O)C(F)(F)F | 6.133 |
| COc1ccc(C)cc1-n1cnnc1C1CCOCC1 | 1.298 |
| COCC(c1cccc(C(F)(F)F)c1)N(C)C(=O)c1cc(C)no1 (stereo unspecified) | -19.18 |
| COC(=O)C1CN(Cc2ccn(-c3ccc(F)cc3)n2)CCO1 (stereo unspecified) | -3.694 |
| O=C(NCC1(O)CCc2ccccc21)Nc1ccc2c(c1)OCO2 (stereo unspecified) | -4.749 |
| Cc1ccc(S(=O)(=O)NCC(C)C#N)cc1Br (stereo unspecified) | -32.7 |
| NS(=O)(=O)NCC1(c2ccccc2Br)CC1 | -0.7264 |
| Cn1nc(CNC(=O)CC#N)c2c1CN(C(N)=O)CC2 | 9.409 |
| Cc1cccnc1CNC(=O)NC(C)Cc1c(C)nn(C)c1C (stereo unspecified) | -5.579 |
| Cc1ccc(CNC2(Cc3cc(-c4cccc(O)c4)on3)COC2)o1 | -8.459 |
| CC(NC(=O)NCCc1cnn(C)c1)c1ccc(Cl)s1 (stereo unspecified) | 7.772 |
